Measured values drawn from ChEMBL document CHEMBL3877308 for this set.

ASSAY SYSTEM: Signal peptidase I (Escherichia coli K-12)
PROTOCOL DETAILS: Inhibition of full length Escherichia coli His6-tagged LepB expressed in Escherichia coli C43(DE3) assessed as residual activity at 1.25 uM using dabcyl-VEVGGTATAGAFSRPGLE-(EDANS) as substrate preincubated for 10 mins followed by substrate addition measured for 2 hrs by FRET assay relative to control
MEASUREMENT KIND: Activity (%)
Return type: number; implicit unit %.

CCCCCCc1ccc(-c2ccc(C(=O)N3CCC[C@H]3C(=O)N[C@H](C(=O)N[C@@H](C)C(=O)N[C@@H](CC(N)=O)C(=O)N[C@@H](C)B3O[C@@H]4C[C@@H]5C[C@@H](C5(C)C)[C@]4(C)O3)[C@H](C)O)cc2)cc1; 11.4

// next item, Activity requested
Provide one value: measured Activity of CCCCCCc1ccc(-c2ccc(C(=O)N3CC(CN)C[C@H]3C(=O)N[C@H](C(=O)N[C@@H](C)C(=O)N[C@@H](CC(N)=O)C(=O)N[C@@H](C)B(O)O)[C@H](C)O)cc2)cc1 (some centres not stated)
28.4

====

ASSAY SYSTEM: Signal peptidase I (Escherichia coli K-12) (UniProt P00803)
Sequence (P00803 whole entry): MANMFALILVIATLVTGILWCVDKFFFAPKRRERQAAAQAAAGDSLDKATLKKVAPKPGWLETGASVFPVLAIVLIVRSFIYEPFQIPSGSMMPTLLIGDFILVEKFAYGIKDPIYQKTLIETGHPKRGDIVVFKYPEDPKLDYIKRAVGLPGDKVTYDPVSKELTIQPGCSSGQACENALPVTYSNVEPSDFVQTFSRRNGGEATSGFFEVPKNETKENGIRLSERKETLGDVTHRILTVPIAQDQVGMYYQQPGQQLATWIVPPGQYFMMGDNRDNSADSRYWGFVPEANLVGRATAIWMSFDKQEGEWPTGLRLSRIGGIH
PROTOCOL DETAILS: Inhibition of full length Escherichia coli His6-tagged LepB expressed in Escherichia coli C43(DE3) assessed as residual activity at 0.002 uM using dabcyl-VEVGGTATAGAFSRPGLE-(EDANS) as substrate preincubated for 10 mins followed by substrate addition measured for 2 hrs by FRET assay relative to control
MEASUREMENT KIND: Activity (%)
I only need the number, in %, no unit after it.

CCCCCCc1ccc(-c2ccc(C(=O)N3CCC[C@H]3C(=O)N[C@H](C(=O)N[C@@H](C)C(=O)N[C@@H](CC(N)=O)C(=O)N[C@@H](C)B3O[C@@H]4C[C@@H]5C[C@@H](C5(C)C)[C@]4(C)O3)[C@H](C)O)cc2)cc1; 92.8
CCCCCCc1ccc(-c2ccc(C(=O)N3CC(CN)C[C@H]3C(=O)N[C@H](C(=O)N[C@@H](C)C(=O)N[C@@H](CC(N)=O)C(=O)N[C@@H](C)B3O[C@@H]4C[C@@H]5C[C@@H](C5(C)C)[C@]4(C)O3)[C@H](C)O)cc2)cc1 (stereo not given in full); 88.8
CCCCCCc1ccc(-c2ccc(C(=O)N3CC(CN)C[C@H]3C(=O)N[C@H](C(=O)N[C@@H](C)C(=O)N[C@@H](CC(N)=O)C(=O)N[C@@H](C)B(O)O)[C@H](C)O)cc2)cc1 (stereo not given in full); 85.8

Supply Activity value. Item: CCCCc1ccc(-c2ccc(C(=O)N[C@@H](CCN)C(=O)N[C@H](C(=O)N[C@@H](C)C(=O)N[C@@H](CCCCN)C(=O)N[C@@H](C)B3O[C@@H]4C[C@@H]5C[C@@H](C5(C)C)[C@]4(C)O3)[C@H](C)O)cc2)cc1
98.2

Supply Activity value. Item: CCCCCCCCCC(=O)N1CCC[C@H]1C(=O)N[C@H](C(=O)N[C@@H](C)C(=O)N[C@@H](CC(N)=O)C(=O)N[C@@H](C)B1O[C@@H]2C[C@@H]3C[C@@H](C3(C)C)[C@]2(C)O1)[C@H](C)O
81.9

====

ASSAY SYSTEM: Signal peptidase I (Escherichia coli K-12) (UniProt P00803)
PROTOCOL DETAILS: Inhibition of full length Escherichia coli His6-tagged LepB expressed in Escherichia coli C43(DE3) assessed as residual activity at 0.313 uM using dabcyl-VEVGGTATAGAFSRPGLE-(EDANS) as substrate preincubated for 10 mins followed by substrate addition measured for 2 hrs by FRET assay relative to control
MEASUREMENT KIND: Activity

See these solved cases before continuing.
CCCCCCc1ccc(-c2ccc(C(=O)N3CCC[C@H]3C(=O)N[C@H](C(=O)N[C@@H](C)C(=O)N[C@@H](CC(N)=O)C(=O)N[C@@H](C)B3O[C@@H]4C[C@@H]5C[C@@H](C5(C)C)[C@]4(C)O3)[C@H](C)O)cc2)cc1; 17.4%
CCCCCCc1ccc(-c2ccc(C(=O)N3CCC[C@H]3C(=O)N[C@H](C(=O)N[C@@H](C)C(=O)N[C@@H](CC(N)=O)C(=O)N[C@@H](C)B(O)O)[C@H](C)O)cc2)cc1; 38.4%
CCCCCCCCCC(=O)N1CCC[C@H]1C(=O)N[C@H](C(=O)N[C@@H](C)C(=O)N[C@@H](CC(N)=O)C(=O)N[C@@H](C)B1O[C@@H]2C[C@@H]3C[C@@H](C3(C)C)[C@]2(C)O1)[C@H](C)O; 19.7%
CCCCc1ccc(-c2ccc(C(=O)N[C@@H](CCN)C(=O)N[C@H](C(=O)N[C@@H](C)C(=O)N[C@@H](CCCCN)C(=O)N[C@@H](C)B3O[C@@H]4C[C@@H]5C[C@@H](C5(C)C)[C@]4(C)O3)[C@H](C)O)cc2)cc1; 18.9%

Return Activity (reported value) for this compound: CCCCCCc1ccc(-c2ccc(C(=O)N3CC(CN)C[C@H]3C(=O)N[C@H](C(=O)N[C@@H](C)C(=O)N[C@@H](CC(N)=O)C(=O)N[C@@H](C)B(O)O)[C@H](C)O)cc2)cc1 (stereo not given in full)
25.3%
